Catalogue of compounds with associated TGI
Test system: COLO 205 colon
method-description: NCI tumour cell line growth inhibition, 48 h

Answered cases to consult:
compound	TGI
O=C(/C=C/c1ccc2c(c1)OCO2)NCc1ccco1	> 100 µM
CCN(CC)C(=O)c1c(Cl)cc(N(CC)CC)oc1=O	> 100 µM
COc1ccc(Nc2nc(C#N)c(N)s2)cc1	> 100 µM

Task: So what TGI did COC1OC(C)C(OC(=O)C(C)(C)C)C(OS(=O)(=O)c2ccc(C)cc2)C1OS(=O)(=O)c1ccc(C)cc1 (centres undefined) get with COLO 205 colon?
Output: > 100 µM

* * *

Tested on: HOP-62 NSCLC
method-description: NCI tumour cell line growth inhibition, 48 h
Entries and their TGI values follow.

Reference set, count: 2
Cc1ccnc2[nH]c(-c3cccc4ccccc34)cc(=O)c12 > 100 µM
CCOC(=O)C(C)(C)Oc1ccc(Cl)cc1 > 1000 µM

Now, please, on to the next compound.
Task: Fill in the blank: the reported TGI of Cc1ccc(C(=O)CCl)o1 is ____.
Output: > 10 µM

* * *

System: OVCAR-8 ovarian
method-description: NCI tumour cell line growth inhibition, 48 h
value-kind: TGI

Answered examples (3):
compound	test-result
COc1cccc(C2SCC(=O)N2c2ccc(-c3ccc(-n4c(-c5ccccc5)nc5ccccc5c4=O)cc3)cc2)c1OC (stereo unspecified)	> 100 µM
O=[N+]([O-])[O][Sn]([O][Sn]([O][N+](=O)[O-])([c]1ccccc1)[c]1ccccc1)([c]1ccccc1)[c]1ccccc1	> 100 µM
O=C1CCC(=O)N1CNc1cccc(NCN2C(=O)CCC2=O)c1	> 100 µM

Task: Need TGI, item CC(O)C(C(=O)O)N(CC1(O)OCC(O)C(O)C1O)N=O (stereo unspecified)
Output: > 100 µM

Task: Request the reported TGI associated with C/C1=C/C2OC(=O)C3(C)C2C(CC2(C)OC1=CC2=O)OC3(O)C(C)C (stereo unspecified)
Output: > 62.4 µM

Task: Look up TGI for this compound: Cc1c(C(=N)N)oc2ccccc12
Output: > 100 µM

* * *

Test system: SNB-19 CNS
method-description: NCI tumour cell line growth inhibition, 48 h
Reported TGI is given for each of the following molecules.

Here is how some molecules turned out for TGI.
molecule	test-result
OC(c1ccc(F)cc1)(c1ccc(F)cc1)C1CC1	> 100 µM
CCOC(=O)C(=O)Nc1cccc(Cl)c1C	> 100 µM
C[C@H](NS(=O)(=O)c1ccc(NC(=O)c2ccccc2)cc1)C(=O)O	> 100 µM
COc1ccc(-c2c3ccccc3c(-c3ccc(OC)cc3)c3ccccc23)cc1	> 100 µM
CCN1CC2(COC)C(O)CC(OC)C34C5CC6(O)C(OC)C=C(C5C6OC(=O)c5ccc(OC)c(OC)c5)C(C(OC)C23)C14 (stereo unspecified)	> 7.5 µM
N#CC1Sc2ccccc2-n2cccc21 (stereo unspecified)	> 100 µM
COC(=O)[C@@H](NC1(c2ccccc2)c2ccccc2-c2ccccc21)[C@H](OC(=O)[C@H]1CCCN1S(=O)(=O)c1ccccc1)C(=O)OC	> 100 µM
CCOC(=O)CC1c2ccc(O)cc2OC(=O)C1c1ccc(N)cc1 (stereo unspecified)	> 100 µM
Cc1ccc(NC(=O)CSc2nnc(Cc3ccccc3)o2)c(C)c1	> 100 µM
CN(C)c1ccc(Cc2cc(C(C)(C)C)cc(C(C)(C)C)c2O)cc1	47.1 µM

Task: Recorded TGI for NCc1ccc(O)c(O)c1 with SNB-19 CNS, please?
Output: > 100 µM

Task: # get_value(readout= TGI, system= SNB-19 CNS) for O=C(/C=C/c1ccc(OCc2ccccc2)c(OCc2ccccc2)c1)OCc1ccccc1
Output: > 100 µM

Task: Find the measured TGI: item COc1cc(C(=O)/C=C/c2cc(-c3cc(OC)c(OC)c(OC)c3)n[nH]2)cc(OC)c1OC , target or system SNB-19 CNS.
Output: 3.69 µM

Task: Under SNB-19 CNS: TGI value of COc1cc2c3c(n(CCCNCCCNCCCn4c5c(c6cc(OC)c(OC)cc6c4=O)C(=O)c4ccccc4-5)c(=O)c2cc1OC)-c1ccccc1C3=O ?
Output: > 47.8 µM
